- Tgt: KRAS G12V (Homo sapiens, UniProt P01116, G12V)
- Sequence (P01116 1-188 isoform P01116-2 G12V): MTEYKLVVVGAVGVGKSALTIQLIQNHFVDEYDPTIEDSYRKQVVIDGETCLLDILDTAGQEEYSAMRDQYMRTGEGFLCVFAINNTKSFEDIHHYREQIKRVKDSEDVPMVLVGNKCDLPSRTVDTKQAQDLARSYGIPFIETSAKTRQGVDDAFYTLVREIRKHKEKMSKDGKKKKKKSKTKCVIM
- Protocol notes: KRAS_G12V GDP-GTP exchange assay (bodipy-GDP/GppNHp, SOS1)
- Format: biochemical
- Conditions: bodipy loaded KRAS G12V 2.5 nM, 3 hours incubation after GppNHp-SOS1; read-out: G12V_exchange (KRAS_G12V exchange assay IC50)
pIC50: −log10 of the molar value.
In this section we review reported pIC50 values for a set of molecules.

{"columns": ["Molecule", "pIC50"],
 "data": [
  ["COC(=O)CCc1cc2c(O[C@@H](C)[C@@H]3CCCN3C)nc3c(F)c(-c4cc(O)cc5ccccc45)ncc3c2n1C1C2CNC1C2 (single isomer, unassigned) [Example 1a]", "≥ 7.00"],
  ["C[C@H](Oc1nc2c(F)c(N3CCCc4ccccc43)ncc2c2c1cc(CN1CCOC1=O)n2C1C2CNC1C2)[C@@H]1CCCN1C (single isomer, unassigned)", "6.00 to 7.00"],
  ["COC(=O)CCc1cc2c(O[C@@H](C)[C@@H]3CCCN3C)nc3c(F)c(-c4cc(O)cc5ccccc45)ncc3c2n1C1C2CNC1C2 (single isomer, unassigned) [Example 1b]", "≥ 7.00"],
  ["C[C@H](Oc1nc2c(F)c(-c3cccc4c3OCCC4)ncc2c2c1cc([C@@H](C)n1ccccc1=O)n2[C@H]1[C@H]2CN[C@@H]1C2)[C@@H]1CCCN1C", "≥ 7.00"],
  ["Cc1cc2c(O[C@@H](C)[C@@H]3CCCN3C)nc3c(F)c(N4CCc5ccccc54)ncc3c2n1C1C2CNC1C2 (single isomer, unassigned) [Example 8a]", "6.00 to 7.00"]
]}

---

- Tgt: KRAS G12V (Homo sapiens, UniProt P01116, G12V)
- Protocol notes: KRAS_G12V pERK assay
- Format: cell-based
- Conditions: read-out: G12V_pERK (KRAS_G12V pERK assay IC50)

{"columns": ["Compound", "IC50"],
 "data": [
  ["C[C@H](Oc1nc2c(F)c(-c3cccc4c3OCCC4)ncc2c2c1cc(-c1cn(C)nc1C(=O)N(C)C)n2[C@H]1[C@H]2CN[C@@H]1C2)[C@@H]1CCCN1C", "1000 to 5000 nM"],
  ["COC(=O)CCc1cc2c(O[C@@H](C)[C@@H]3CCCN3C)nc3c(F)c(-c4cc(O)cc5ccccc45)ncc3c2n1C1C2CNC1C2 (single isomer, unassigned) [Example 1a]", "1000 to 5000 nM"],
  ["Cc1cc2c(O[C@@H](C)[C@@H]3CCCN3C)nc3c(F)c(-c4cc(O)cc5ccccc45)ncc3c2n1C1C2CNC1C2 (single isomer, unassigned) [Example 3a]", "100 to 1000 nM"],
  ["COC(=O)CCc1cc2c(OC[C@@]34CCCN3C[C@H](F)C4)nc3c(F)c(-c4cc(O)cc5ccccc45)ncc3c2n1C1C2CNC1C2 (single isomer, unassigned)", "5000 to 10000 nM"],
  ["Cc1cc2c(O[C@@H](C)[C@@H]3CCCN3C)nc3c(F)c(-c4cc(O)cc5ccccc45)ncc3c2n1C1C2CNC1C2 (single isomer, unassigned) [Example 3b]", "5000 to 10000 nM"],
  ["C[C@H](Oc1nc2c(F)c(-c3cccc4c3OCCC4)ncc2c2c1cc(C1CC[C@H]3COC(=O)N13)n2[C@H]1[C@H]2CN[C@@H]1C2)[C@@H]1CCCN1C (single isomer, unassigned) [Example 26a]", "1000 to 5000 nM"],
  ["COC(=O)N1CCC[C@@H]1c1cc2c(O[C@@H](C)CN3CCCC3)nc3c(F)c(-c4cccc5scnc45)ncc3c2n1[C@H]1[C@H]2CN[C@@H]1C2", "1000 to 5000 nM"],
  ["Cc1cc2c(OCC34CCCN3CCC4)nc3c(F)c(-c4cc(O)cc5ccccc45)ncc3c2n1[C@@H]1[C@@H]2CN[C@H]1C2 (relative stereo)", "1000 to 5000 nM"],
  ["COC(=O)CCc1cc2c(O[C@@H](C)[C@@H]3CCCN3C)nc3c(F)c(-c4cc(O)cc5ccccc45)ncc3c2n1C1C2CNC1C2 (single isomer, unassigned) [Example 1b]", "100 to 1000 nM"]
]}
